Molecular target: Nuclear receptor ROR-alpha (Homo sapiens, UniProt P35398)
Assay: Partial agonist activity at GST-fussed RORalpha (unknown origin) assessed as recruitment of TIF2-BAP protein after overnight incubation by pull down assay
pEC50: −log10 of the molar value.
Catalogue of pEC50 values

{"compound": "CCOC(=O)C1=C(C)N(C)C(=O)NC1c1ccc(OCc2ccccc2)c(OC)c1 (racemic)", "pEC50": "< 4.72"}
{"compound": "COc1cc(C2NC(=O)NC(C)=C2C(=O)OCC(F)(F)F)ccc1OCc1ccccc1 (racemic)", "pEC50": "< 4.52"}
{"compound": "CCOc1cc(C2NC(=O)NC(C)=C2C(C)=O)ccc1OCc1ccccc1Cl (single isomer, unassigned; enantiomer 2)", "pEC50": "< 4.52"}
{"compound": "CC1=C(C(=O)OCC(F)(F)F)C(c2ccc(OCc3ccccc3)cc2)NC(=O)N1 (racemic)", "pEC50": "< 4.52"}

###

Catalogue of pEC50 values
Target: Nuclear receptor ROR-alpha (Homo sapiens, UniProt P35398)
Sequence (P35398 whole entry): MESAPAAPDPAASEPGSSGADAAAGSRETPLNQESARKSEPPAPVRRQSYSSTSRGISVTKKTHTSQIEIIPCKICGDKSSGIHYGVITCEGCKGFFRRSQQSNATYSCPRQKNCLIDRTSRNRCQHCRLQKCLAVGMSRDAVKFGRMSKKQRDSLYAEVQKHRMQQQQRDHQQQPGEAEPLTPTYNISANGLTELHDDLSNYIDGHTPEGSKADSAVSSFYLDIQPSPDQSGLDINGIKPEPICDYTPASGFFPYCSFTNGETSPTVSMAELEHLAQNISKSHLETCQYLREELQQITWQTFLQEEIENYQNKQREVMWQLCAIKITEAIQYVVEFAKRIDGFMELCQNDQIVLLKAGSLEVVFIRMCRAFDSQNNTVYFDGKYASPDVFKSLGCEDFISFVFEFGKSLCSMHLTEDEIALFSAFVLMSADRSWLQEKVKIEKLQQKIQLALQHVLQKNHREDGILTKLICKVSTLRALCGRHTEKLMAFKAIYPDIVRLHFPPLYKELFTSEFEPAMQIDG
Assay: Partial agonist activity at GST-fussed RORalpha (unknown origin) assessed as recruitment of TIF2-BAP protein after overnight incubation by pull down assay
pEC50: −log10 of the molar value.
measurement-type: pEC50

{"compound": "COc1ccc(COC(=O)C2=C(C)NC(=O)NC2c2ccc(OCc3ccccc3)c(OC)c2)cc1 (racemic)", "relation-operator": "=", "reported-measurement": 4.96}
{"compound": "COc1cccc(COC(=O)C2=C(C)NC(=O)NC2c2ccc(OCc3ccccc3)c(OC)c2)c1 (racemic)", "relation-operator": "=", "reported-measurement": 4.58}
{"compound": "CCCCOC(=O)C1=C(C)NC(=O)NC1c1ccc(OCc2ccccc2)c(OC)c1 (racemic)", "relation-operator": "=", "reported-measurement": 4.85}
{"compound": "COc1cc(C2NC(=O)NC(C)=C2C(=O)OCc2ccc3c(c2)OCO3)ccc1OCc1ccccc1 (racemic)", "relation-operator": "=", "reported-measurement": 4.90}
{"compound": "CCOC(=O)C1=C(C)NC(=O)NC1c1ccc(OCc2ccccc2)c(OC)c1 (racemic)", "relation-operator": "=", "reported-measurement": 5.05}
{"compound": "CC1=C(C(=O)OCCOc2ccccc2)C(c2ccc(OCc3ccccc3)cc2)NC(=O)N1 (racemic)", "relation-operator": "=", "reported-measurement": 5.09}
{"compound": "COc1cc(C2NC(=O)NC(C)=C2C(=O)OCc2ccccc2)ccc1OCc1ccccc1 (racemic)", "relation-operator": "<", "reported-measurement": 4.52}
{"compound": "CCOC(=O)C1=C(CC)NC(=O)NC1c1ccc(OCc2ccccc2)c(OC)c1 (racemic)", "relation-operator": "<", "reported-measurement": 4.52}
{"compound": "COc1cc(C2NC(=O)NC(C)=C2C(C)=O)ccc1OCc1ccccc1Cl (racemic)", "relation-operator": "=", "reported-measurement": 4.55}
{"compound": "CCOC(=O)C1=C(C)NC(=O)NC1c1cc(OC)c(OCc2ccccc2Cl)cc1Cl (racemic)", "relation-operator": "=", "reported-measurement": 5.26}
{"compound": "CCOC(=O)C1=C(C)NC(=O)NC1c1ccc(OCc2ccccc2)cc1 (racemic)", "relation-operator": "=", "reported-measurement": 5.37}
{"compound": "CCOC(=O)C1=C(C)NC(=O)N(C)C1c1ccc(OCc2ccccc2)c(OC)c1 (racemic)", "relation-operator": "<", "reported-measurement": 4.52}
{"compound": "COc1cc(C2NC(=O)NC(C)=C2C(=O)OCCSC)ccc1OCc1ccccc1 (racemic)", "relation-operator": "<", "reported-measurement": 4.52}
{"compound": "C=CCOC(=O)C1=C(C)NC(=O)NC1c1ccc(OCc2ccccc2)c(OC)c1 (racemic)", "relation-operator": "=", "reported-measurement": 4.64}
{"compound": "COc1ccc(COC(=O)C2=C(C)NC(=O)NC2c2ccc(OCc3ccccc3)c(OC)c2)cc1OC (racemic)", "relation-operator": "=", "reported-measurement": 4.58}
